test: Cmin in B6 mouse at 200 mg/kg, po measured after 7 hrs by UV-HPLC analysis; format: ADME, organism-based; settings: in vivo, read-out: Cmin
Assign concentration at 7 h to each entry below.
Give just the number in ng/mL; leave the unit off.

Query (compound): `Cc1cc(C(=O)Nc2cc(Nc3ccc4c(/C=C/c5ccccn5)n[nH]c4c3)ccc2F)n(C)n1.Cl` ; field requested: concentration at 7 h 12700

Would you kindly share the measured concentration at 7 h for `Cc1cc(C(=O)Nc2cccc(C(=O)c3ccc4c(/C=C/c5ccccn5)n[nH]c4c3)c2)n(C)n1.Cl` ? 12100

====

assay: Antiproliferative activity against VEGF-stimulated HUVEC cells assessed as reduction in cell viability at 10 nM preincubated for 1 hr followed by addition of VEGF measured after 72 hrs by MTT assay; assay type: functional; details: Homo sapiens
VALUE KIND: inhibition at 0.01 µM (%)
Give just the number in %; leave the unit off.

Returns the measured inhibition at 0.01 µM for the input compound. Input: O=C(Nc1cccc(Oc2ccc3c(/C=C/c4ccccc4)n[nH]c3c2)c1)C1CC2C=CC1CC2 (configuration not stated) 13

Would you mind telling me what inhibition at 0.01 µM value was observed for `C[C@@H]1[C@H](C)[C@H](C)C[C@@H]1C(=O)Nc1cccc(Nc2ccc3c(/C=C/c4ccccc4)n[nH]c3c2)c1` ? 7

Which inhibition at 0.01 µM is listed for `Cc1cc(C(=O)Nc2cccc(C(=O)c3ccc4c(/C=C/c5ccccc5)n[nH]c4c3)c2)c(C)[nH]1` ? 26

I would be grateful if you could share the reported inhibition at 0.01 µM for `Cc1cc(C(=O)Nc2cccc(Oc3ccc4c(/C=C/c5ccccc5)n[nH]c4c3)c2)n[nH]1` . 150

# input compound: `Cc1ccc(C2(C(=O)Nc3cccc(C(=O)c4ccc5c(/C=C/c6ccccc6)n[nH]c5c4)c3)CC2)cc1` ; wanted: its inhibition at 0.01 µM 0

Query: inhibition at 0.01 µM; subject: O=C(CC1CC2CCC1C2)Nc1cccc(Nc2ccc3c(/C=C/c4ccccc4)n[nH]c3c2)c1 (configuration not stated) 87

Bench note: what inhibition at 0.01 µM did `Cc1ccc(CCC(=O)Nc2cccc(Oc3ccc4c(/C=C/c5ccccc5)n[nH]c4c3)c2)cc1` show? 70

What value of measured inhibition at 0.01 µM is listed for O=C(Nc1cccc(Oc2ccc3c(/C=C/c4ccccc4)n[nH]c3c2)c1)C1CC2CC(O)C1C2 (configuration not stated) ? 38

Data request, read-out inhibition at 0.01 µM, for `O=C(Cc1cccnc1)Nc1cccc(C(=O)c2ccc3c(/C=C/c4ccccc4)n[nH]c3c2)c1` 21

Item under review: CC(C)CC(O)C(=O)Nc1cccc(C(=O)c2ccc3c(/C=C/c4ccccc4)n[nH]c3c2)c1 (configuration not stated) . Reported inhibition at 0.01 µM? 47

What measured inhibition at 0.01 µM goes with `O=C1CC[C@H](C(=O)Nc2cccc(C(=O)c3ccc4c(/C=C/c5ccccc5)n[nH]c4c3)c2)N1` ? 32

Item CCC(C(=O)Nc1cccc(Oc2ccc3c(/C=C/c4ccccc4)n[nH]c3c2)c1)c1ccccc1C (configuration not stated) has what recorded inhibition at 0.01 µM? 46

Name the reported inhibition at 0.01 µM value associated with the compound `O=C(Nc1cccc(Oc2ccc3c(/C=C/c4ccccc4)n[nH]c3c2)c1)c1cc(=O)cco1` 18

I am curious: what inhibition at 0.01 µM value has been reported for O=C1NCC(C(=O)Nc2cccc(Oc3ccc4c(/C=C/c5ccccc5)n[nH]c4c3)c2)N1 (configuration not stated) ? 40

So what does the record say about inhibition at 0.01 µM for CN1CC(C(=O)Nc2cccc(C(=O)c3ccc4c(/C=C/c5ccccc5)n[nH]c4c3)c2)CC1=O (configuration not stated) ? 10

Consider the compound `O=C(Cc1cc(F)ccc1F)Nc1cccc(Oc2ccc3c(/C=C/c4ccccc4)n[nH]c3c2)c1` and give its measured inhibition at 0.01 µM. 91

Which inhibition at 0.01 µM reading was recorded for the compound `O=C(Cc1cc(F)cc(F)c1)Nc1cccc(Nc2ccc3c(/C=C/c4ccccc4)n[nH]c3c2)c1` ? 77
